assay: qHTS assay to identify small molecule agonists of the constitutive androstane receptor (CAR) signaling pathway - cell viability counter screen (AID 1224836); details: HepG2-CYP2B6-hCAR viability, CellTiter-Fluor, 23 h, PK11195 added to every well; series mostly up to 92.4 µM; note: % is set by controls: 0 for no effect and ±100 for the full control effect; nearly all actives have a fitted effect of over 45% in size
Records with an inconclusive call do not appear. The source made the active and inactive calls. Calls come from the whole dose curve; as a rule, active = well fitted cell-killing curve with a large enough effect in the repeat runs; inconclusive = weak or mixed curves, or effect the other way; inactive = flat fitted curve, though single readings scatter.
measurement.name: viability change, negative = cytotoxic

Fill in: viability change, negative = cytotoxic of CCN[C@@H]1C[C@H](N)[C@@H](OC2OC(CN)=CCC2N)[C@H](O)[C@H]1O[C@H]1OC[C@](C)(O)[C@H](NC)[C@H]1O (stereo partly drawn) is ___
2.22% [at 0.349 µM] (inactive)

Fill in: viability change, negative = cytotoxic of `CCO[Si](OCC)(OCC)c1ccccc1` is ___
inactive

Fill in: viability change, negative = cytotoxic of `COc1cc(-c2ccc(=O)[nH]n2)ccc1OC(F)F` is ___
inactive

====

Target: Nuclear receptor subfamily 1 group I member 2 (Homo sapiens) (UniProt O75469)
Sequence (O75469 whole entry, looked up): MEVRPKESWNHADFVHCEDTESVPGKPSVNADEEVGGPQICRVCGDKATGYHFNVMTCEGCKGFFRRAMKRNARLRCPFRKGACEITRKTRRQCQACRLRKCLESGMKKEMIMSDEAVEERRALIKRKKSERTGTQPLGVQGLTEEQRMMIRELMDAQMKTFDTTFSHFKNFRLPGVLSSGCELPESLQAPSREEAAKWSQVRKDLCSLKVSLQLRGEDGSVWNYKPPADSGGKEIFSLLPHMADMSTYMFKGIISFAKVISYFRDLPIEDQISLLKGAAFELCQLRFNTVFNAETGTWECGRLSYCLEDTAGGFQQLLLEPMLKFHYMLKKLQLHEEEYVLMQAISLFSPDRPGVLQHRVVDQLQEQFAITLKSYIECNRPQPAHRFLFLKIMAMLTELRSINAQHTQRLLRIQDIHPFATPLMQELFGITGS
Test: Human pregnane X receptor (PXR) small molecule agonists, qHTS assay (AID 1346982); note: nearly all actives have a fitted effect of over 35% in size; for activation: % is set by controls: 0 for no effect and ±100 for the full control effect
Settings: PXR-Luc HepG2, CYP3A4 luciferase reporter, 24 h; series mostly up to 92.4 µM
Description: National Center for Advancing Translational Sciences [NCATS] NIH Chemical Genomics Center [NCGC] U.S. Environmental Protection Agency [EPA] National Institutes of Environmental Health Sciences [NIEHS] National Toxicology Program [NTP] The human pregnane X receptor (hPXR) regulates the expression of several drug metabolizing enzymes and induction of these proteins is a major mechanism for developing drug resistance in cancer. […]
Inconclusive results are not listed. Calls of active or inactive are those of the source. Calls come from the whole dose curve; as a rule, active = well fitted activation curve with a large enough effect in the repeat runs; inconclusive = weak or mixed curves; inactive = no such curve, though single readings can be large or run the other way.
The reply should be one of these categories: active, inactive

Recorded call for `CC(C)NNC(=O)c1ccncc1` ?
inactive

Recorded call for `CC[N+](C)(CC)CCOC(=O)C1c2ccccc2Oc2ccccc21` ?
inactive

Recorded call for C=CCOCC(O)CO (stereo not drawn) ?
inactive

Recorded call for `CCCCCCCCCCCCSC` ?
inactive

Recorded call for CCOC(=O)OC(C)OC1=C(C(=O)Nc2ccccn2)N(C)S(=O)(=O)c2ccccc21 (stereo not drawn) ?
inactive

Recorded call for `CC(C)(N)C#N` ?
inactive

Recorded call for `Clc1cc(Cl)c(Cl)nc1Cl` ?
inactive

Recorded call for `Cc1ccc(-c2ccccc2C#N)cc1` ?
inactive

Recorded call for `CC(C)(C)c1ccc(-c2ccc(C(C)(C)C)cc2)cc1` ?
inactive

Recorded call for `COc1cc(-c2ccc(=O)[nH]n2)ccc1OC(F)F` ?
active

Recorded call for `Cc1nc(C2CCCCC2)c(-c2ccc(S(N)(=O)=O)c(F)c2)o1` ?
active

Recorded call for CC12CCC(C(=O)C1=O)C2(C)C (stereo not drawn) ?
inactive

Recorded call for `Cc1cccc(C)c1NC(=O)CC12CCCN1CCC2` ?
inactive

====

biological target: Cytochrome P450 2D6 (Homo sapiens); test: Cytochrome P450 Family 2 Subfamily D Member 6 (CYP2D6) small molecule antagonists: luciferase reporter qHTS assay (AID 1671196); settings: P450-Glo CYP2D6 enzyme assay, luciferin luminescence, 1 h; series mostly up to 115 µM; note: nearly all actives have a fitted effect of over 50% in size
Records with an inconclusive call do not appear. Activity calls are given as the source filed them. The call rests on the fitted dose curve; in most records, active means well fitted inhibition curve with a large enough effect in the repeat runs; inconclusive means weak or mixed curves; inactive means no such curve, though single readings can be large or run the other way.
The reply should be one of these categories: active, inactive

Recorded call for `CCCOC(=O)CC` ?
inactive

Recorded call for CO[C@@]1(NC(=O)C(C(=O)O)c2ccc(O)cc2)C(=O)N2C(C(=O)O)=C(CSc3nnnn3C)CO[C@@H]21 (stereo partly drawn) ?
inactive

Recorded call for `CCOC(=O)C1=NOC(c2ccccc2)(c2ccccc2)C1` ?
inactive

Recorded call for `CN(C)C(=O)Oc1cccc([N+](C)(C)C)c1` ?
inactive

Recorded call for `CCC(=O)OCc1ccccc1` ?
inactive

Recorded call for `CCCCCCCCCC[N+](C)(C)[O-]` ?
active

Recorded call for CC(CC=O)CC(C)(C)C (stereo not drawn) ?
inactive

Recorded call for `CC(C)(C)C(=O)Oc1ccc(S(=O)(=O)Nc2ccccc2C(=O)NCC(=O)O)cc1` ?
inactive
